# Species: Rattus norvegicus
# TEST PROTOCOL: DrugMatrix - Regimen: Daily Repeat
# Format: toxicity, organism-based, Sprague-Dawley
# Set-up: regimen Daily Repeat, gender Male, age 6-8 weeks
# SETTINGS: in vivo, iv, 0 mg/kg, 120 h, tissue Blood, dose level Control, time 5 day, vehicle 100 % SALINE
For each of the molecules below, state its LEUKOCYTE COUNT.
One number for each entry, in x10E3/uL.

INSERT INTO assay_data (molecule, output_unit, result) VALUES
  ('NCC[C@H](O)C(=O)N[C@@H]1C[C@H](N)[C@@H](O[C@H]2O[C@H](CN)[C@@H](O)[C@H](O)[C@H]2O)[C@H](O)[C@H]1O[C@H]1O[C@H](CO)[C@@H](O)[C@H](N)[C@H]1O [AMIKACIN]', 'x10E3/uL', 7.03),
  ('CN(N=O)C(=O)N[C@@H](C=O)[C@@H](O)[C@H](O)[C@H](O)CO [STREPTOZOCIN]', 'x10E3/uL', 15.13),
  ('CC1(C)S[C@@H]2[C@H](NC(=O)[C@H](NC(=O)N3CCNC3=O)c3ccccc3)C(=O)N2[C@H]1C(=O)O [AZLOCILLIN]', 'x10E3/uL', 16.48);

Turning to the following molecule.
*Q* I have this molecule here, CC[C@@]1(O)C(=O)OCc2c1cc1n(c2=O)Cc2cc3ccccc3nc2-1 [CAMPTOTHECIN] , and I need its recorded LEUKOCYTE COUNT.
*A* 12.67

* * *

# Species: Rattus norvegicus
# TEST PROTOCOL: DrugMatrix - Regimen: Daily Repeat
# Type: toxicity, organism-based, Sprague-Dawley
# Parameters: regimen Daily Repeat, gender Male, age 6-8 weeks
# SETTINGS: in vivo, po, 2000 mg/kg, 72 h, tissue Blood, route oral GAVAGE, dose level High, time 3 day, vehicle .5 % CMC
EXPERIMENTAL ENDPOINT: EOSINOPHIL

// known answers, use as guide
INSERT INTO measurements (compound, experimental_endpoint, result) VALUES
  ('NCC(=O)O', 'EOSINOPHIL', '0%'),
  ('CC(=O)O[C@]1(C(C)=O)CC[C@H]2[C@@H]3C=C(Cl)C4=CC(=O)CC[C@]4(C)[C@H]3CC[C@@]21C [CHLORMADINONE ACETATE]', 'EOSINOPHIL', '0.67%'),
  ('CC(C)[C@H](N)C(=O)OCCOCn1cnc2c(=O)[nH]c(N)nc21', 'EOSINOPHIL', '1%');

Turning to the following compound.
*Q* I have this compound here, NCCCC[C@H](N[C@@H](CCc1ccccc1)C(=O)O)C(=O)N1CCC[C@H]1C(=O)O [LISINOPRIL ANHYDROUS] , and I need its recorded EOSINOPHIL.
*A* 0.33%

* * *

# Species on record: Rattus norvegicus
# TEST PROTOCOL: DrugMatrix - Regimen: Daily Repeat
# Type: toxicity, organism-based, Sprague-Dawley
# Design: regimen Daily Repeat, gender Male, age 6-8 weeks
# SETTINGS: in vivo, iv, 0 mg/kg, 120 h, tissue Plasma, dose level Control, time 5 day, vehicle 100 % SALINE
For each of the compounds below, state its BLOOD UREA NITROGEN.
Numbers only, in mg/dL.

// known answers, use as guide
INSERT INTO assay_data (compound, experimental_endpoint, result) VALUES
  ('CC[C@@]1(O)C(=O)OCc2c1cc1n(c2=O)Cc2cc3ccccc3nc2-1 [CAMPTOTHECIN]', 'BLOOD UREA NITROGEN', 16.17),
  ('CC1(C)S[C@@H]2[C@H](NC(=O)[C@H](NC(=O)N3CCNC3=O)c3ccccc3)C(=O)N2[C@H]1C(=O)O [AZLOCILLIN]', 'BLOOD UREA NITROGEN', 15.5),
  ('CN(N=O)C(=O)N[C@@H](C=O)[C@@H](O)[C@H](O)[C@H](O)CO [STREPTOZOCIN]', 'BLOOD UREA NITROGEN', 18.83);

*Q* I have this compound here, NCC[C@H](O)C(=O)N[C@@H]1C[C@H](N)[C@@H](O[C@H]2O[C@H](CN)[C@@H](O)[C@H](O)[C@H]2O)[C@H](O)[C@H]1O[C@H]1O[C@H](CO)[C@@H](O)[C@H](N)[C@H]1O [AMIKACIN] , and I need its recorded BLOOD UREA NITROGEN.
*A* 17

* * *

# Species on record: Rattus norvegicus
# TEST PROTOCOL: DrugMatrix - Regimen: Daily Repeat
# Assay type: toxicity, organism-based, Sprague-Dawley
# Parameters: regimen Daily Repeat, gender Male, age 6-8 weeks
# SETTINGS: in vivo, po, 0 mg/kg, 72 h, tissue Plasma, route oral GAVAGE, dose level Control, time 3 day, […]
EXPERIMENTAL ENDPOINT: GLUCOSE (mg/dL)
One number for each entry, in mg/dL.

// known answers, use as guide
INSERT INTO measurements (compound, result) VALUES
  ('C=CCN', 184),
  ('CC(C)n1c(/C=C/C(O)CC(O)CC(=O)O)c(-c2ccc(F)cc2)c2ccccc21 (centres undefined)', 165.5),
  ('CCCCCCCCCc1ccc(O)cc1', 167.5),
  ('c1ccc2[nH]c(-c3cscn3)nc2c1', 156.67),
  ('CC(C)(Oc1ccc(CCNC(=O)c2ccc(Cl)cc2)cc1)C(=O)O [BEZAFIBRATE]', 163.83),
  ('COCc1c(C(C)C)nc(C(C)C)c(/C=C/[C@@H](O)C[C@@H](O)CC(=O)O)c1-c1ccc(F)cc1', 167.5),
  ('CCCC[C@@H](CC)COC(=O)c1ccccc1C(=O)OC[C@@H](CC)CCCC [BIS(2-ETHYLHEXYL)PHTHALATE]', 156.67),
  ('Oc1c(Cl)cc(Cl)cc1Sc1cc(Cl)cc(Cl)c1O', 165.5);

Turning to the following compound.
*Q* I have this compound here, `CC1=C(/C=C/C(C)=C/C=C/C(C)=C\C(=O)O)C(C)(C)CCC1` , and I need its recorded GLUCOSE.
*A* 163.67

* * *

# Species on record: Rattus norvegicus
# TEST PROTOCOL: DrugMatrix - Regimen: Daily Repeat
# Type: toxicity, organism-based, Sprague-Dawley
# Set-up: regimen Daily Repeat, gender Male, age 6-8 weeks
# SETTINGS: in vivo, po, 0 mg/kg, 72 h, tissue Plasma, route oral GAVAGE, dose level Control, time 3 day, […]
EXPERIMENTAL ENDPOINT: CHLORIDE (MEQ/L)
Numbers only, in MEQ/L.

// known answers, use as guide
INSERT INTO results (compound, experimental_endpoint, result) VALUES
  ('COc1ccc2c(c1)c(CC(=O)OCC(=O)O)c(C)n2C(=O)c1ccc(Cl)cc1 [ACEMETACIN]', 'CHLORIDE', 100.83),
  ('COCc1c(C(C)C)nc(C(C)C)c(/C=C/[C@@H](O)C[C@@H](O)CC(=O)O)c1-c1ccc(F)cc1 [CERIVASTATIN]', 'CHLORIDE', 101);

Value sought for every listed compound: CHLORIDE.
1. CC(C)n1c(/C=C/C(O)CC(O)CC(=O)O)c(-c2ccc(F)cc2)c2ccccc21 (centres undefined) [FLUVASTATIN]
2. C=CCN [ALLYLAMINE]
3. CC(=O)[C@H]1CC[C@H]2[C@@H]3CCC4=CC(=O)CC[C@]4(C)[C@H]3CC[C@]12C [PROGESTERONE]

*A*
[98.33, 102, 97.67]

Value sought for every listed compound: CHLORIDE.
1. Oc1c(Cl)cc(Cl)cc1Sc1cc(Cl)cc(Cl)c1O [BITHIONOL]
2. CN(C)CCCC1(c2ccc(F)cc2)OCc2cc(C#N)ccc21 (centres undefined) [CITALOPRAM]
3. c1ccc2[nH]c(-c3cscn3)nc2c1 [THIABENDAZOLE]

*A*
98.33
97.67
95.83

*Q* I have this compound here, Cn1cnc([N+](=O)[O-])c1Sc1ncnc2nc[nH]c12 [AZATHIOPRINE] , and I need its recorded CHLORIDE.
*A* 99.67

* * *

# Species on record: Rattus norvegicus
# TEST PROTOCOL: DrugMatrix - Regimen: Daily Repeat
# Type: toxicity, organism-based, Sprague-Dawley
# Parameters: regimen Daily Repeat, gender Male, age 6-8 weeks
# SETTINGS: in vivo, po, 0 mg/kg, 72 h, tissue Blood, route oral GAVAGE, dose level Control, time 3 day, […]
For each of the compounds below, state its PLATELET COUNT.
Give bare numbers, in x10E3/uL.

// known answers, use as guide
INSERT INTO assay_data (compound, result) VALUES
  ('C=CCN', 1303.33),
  ('CN(C)CCCC1(c2ccc(F)cc2)OCc2cc(C#N)ccc21 (centres undefined)', 1032),
  ('Cn1cnc([N+](=O)[O-])c1Sc1ncnc2nc[nH]c12', 1151),
  ('CCCC[C@@H](CC)COC(=O)c1ccccc1C(=O)OC[C@@H](CC)CCCC [BIS(2-ETHYLHEXYL)PHTHALATE]', 414.5),
  ('c1ccc2[nH]c(-c3cscn3)nc2c1', 414.5);

Value sought for every listed compound: PLATELET COUNT.
1. CC1=C(/C=C/C(C)=C/C=C/C(C)=C\C(=O)O)C(C)(C)CCC1
2. CC(C)n1c(/C=C/C(O)CC(O)CC(=O)O)c(-c2ccc(F)cc2)c2ccccc21 (centres undefined)

*A*
[1054.17, 1211.33]

Value sought for every listed compound: PLATELET COUNT.
1. CC(=O)[C@H]1CC[C@H]2[C@@H]3CCC4=CC(=O)CC[C@]4(C)[C@H]3CC[C@]12C
2. COC1=CC(=O)C[C@@H](C)[C@]12Oc1c(Cl)c(OC)cc(OC)c1C2=O

*A*
1032
1329.67
